Origin of measurements: BindingDB's records for doi:10.1016/j.bmcl.2012.10.040

# Assayed system: Prostaglandin G/H synthase 2 (Rattus norvegicus, UniProt P35355)
# Sequence (P35355 whole entry): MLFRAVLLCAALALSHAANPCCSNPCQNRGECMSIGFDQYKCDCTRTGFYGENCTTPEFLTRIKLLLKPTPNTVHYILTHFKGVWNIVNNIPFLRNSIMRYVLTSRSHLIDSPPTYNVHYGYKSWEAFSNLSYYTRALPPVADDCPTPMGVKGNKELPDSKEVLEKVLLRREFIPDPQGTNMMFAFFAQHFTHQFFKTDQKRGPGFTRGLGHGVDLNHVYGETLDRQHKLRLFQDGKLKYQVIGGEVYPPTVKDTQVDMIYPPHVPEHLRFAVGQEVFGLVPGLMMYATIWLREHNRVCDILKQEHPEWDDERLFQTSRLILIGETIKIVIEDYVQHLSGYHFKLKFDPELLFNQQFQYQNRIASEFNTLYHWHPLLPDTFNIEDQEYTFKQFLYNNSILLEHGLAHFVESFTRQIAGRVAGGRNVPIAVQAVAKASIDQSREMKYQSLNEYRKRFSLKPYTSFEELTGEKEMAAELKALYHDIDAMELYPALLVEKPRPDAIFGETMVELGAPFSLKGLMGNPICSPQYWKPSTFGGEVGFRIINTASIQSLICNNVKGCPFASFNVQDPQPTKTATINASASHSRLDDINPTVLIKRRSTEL
# Method: Inhibition of COX2 in rat synovial fibroblast assessed as inhibition of IL-1-mediated PGE2 production
pIC50: −log10 of the molar value.
Endpoint name: pIC50

> print(dat)
                                 cpd.smiles  reported.measurement
1  O=C(N[C@H]1CCC[C@@H]1OCc1ccccc1)C1CCN(c2nc3cc(Cl)ccc3o2)CC1                < 4.52

----------
# Assayed system: Prostaglandin G/H synthase 2 (Canis lupus familiaris, UniProt Q8SPQ9)
# Sequence (Q8SPQ9 whole entry): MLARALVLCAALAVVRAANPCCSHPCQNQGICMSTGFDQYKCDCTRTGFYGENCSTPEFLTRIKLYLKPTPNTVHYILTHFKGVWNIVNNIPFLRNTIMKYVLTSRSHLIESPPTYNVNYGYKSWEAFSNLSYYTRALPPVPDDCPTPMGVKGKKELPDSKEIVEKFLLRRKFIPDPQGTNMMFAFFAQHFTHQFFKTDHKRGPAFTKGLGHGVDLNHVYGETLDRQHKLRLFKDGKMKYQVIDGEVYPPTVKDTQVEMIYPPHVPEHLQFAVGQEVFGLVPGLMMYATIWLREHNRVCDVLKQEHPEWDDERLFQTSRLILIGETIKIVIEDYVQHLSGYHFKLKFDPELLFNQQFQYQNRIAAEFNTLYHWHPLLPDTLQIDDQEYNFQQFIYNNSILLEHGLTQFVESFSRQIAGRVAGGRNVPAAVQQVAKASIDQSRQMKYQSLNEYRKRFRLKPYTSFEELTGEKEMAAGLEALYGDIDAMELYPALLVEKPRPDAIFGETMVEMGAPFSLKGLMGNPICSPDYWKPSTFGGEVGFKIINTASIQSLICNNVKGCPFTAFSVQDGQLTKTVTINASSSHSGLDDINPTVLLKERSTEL
# Method: Inhibition of COX2 in dog whole blood assessed as LPS-induced PGE2 production
pIC50: −log10 of the molar value.
Endpoint name: pIC50

> print(dat)
                                 cpd.smiles                            assayed.system  endpoint.name  reported.measurement
1  O=C(N[C@H]1CCC[C@@H]1OCc1ccccc1)C1CCN(c2nc3cc(Cl)ccc3o2)CC1  Prostaglandin G/H synthase 2 (Canis lupus familiaris, UniProt Q8SPQ9)          pIC50                  5.91

----------
Listed here are compounds together with their documented IC50.
# Assayed system: Prostaglandin G/H synthase 2 (Homo sapiens)
# Method: Inhibition of COX2 in human whole blood assessed as PGE2 level incubated for 15 mins prior to substrate addition measured after 10 mins by ELISA
Endpoint name: IC50 (µM)

> print(dat)
                                 cpd.smiles  qualifying.sign  reported.measurement
1  O=C(N[C@@H]1CCC[C@H]1OCc1ccccc1)C1CCN(c2nc3cc(Cl)ccc3o2)CC1                =                  27.4
2  O=C(N[C@H]1CC[C@@H](CO)CC1)C1CCN(c2nc3cc(Cl)ccc3o2)CC1                =                  11.1
3  O=C(N[C@H]1CCC[C@H]1OCc1ccccc1)C1CCN(c2nc3cc(Cl)ccc3o2)CC1                =                  76.6
4  O=C(N[C@H]1CCC[C@@H]1COc1ccccc1)C1CCN(c2nc3cc(Cl)ccc3o2)CC1                >                  33.6
5  O=C(N[C@H]1CCC[C@@H]1OCc1ccccc1)C1CCN(c2nc3cc(Cl)ccc3o2)CC1                =                  7.56

----------
Listed here are compounds together with their documented log10(IC50).
# Assayed system: Prostaglandin G/H synthase 2 (Homo sapiens, UniProt P35354)
# Sequence (P35354 whole entry): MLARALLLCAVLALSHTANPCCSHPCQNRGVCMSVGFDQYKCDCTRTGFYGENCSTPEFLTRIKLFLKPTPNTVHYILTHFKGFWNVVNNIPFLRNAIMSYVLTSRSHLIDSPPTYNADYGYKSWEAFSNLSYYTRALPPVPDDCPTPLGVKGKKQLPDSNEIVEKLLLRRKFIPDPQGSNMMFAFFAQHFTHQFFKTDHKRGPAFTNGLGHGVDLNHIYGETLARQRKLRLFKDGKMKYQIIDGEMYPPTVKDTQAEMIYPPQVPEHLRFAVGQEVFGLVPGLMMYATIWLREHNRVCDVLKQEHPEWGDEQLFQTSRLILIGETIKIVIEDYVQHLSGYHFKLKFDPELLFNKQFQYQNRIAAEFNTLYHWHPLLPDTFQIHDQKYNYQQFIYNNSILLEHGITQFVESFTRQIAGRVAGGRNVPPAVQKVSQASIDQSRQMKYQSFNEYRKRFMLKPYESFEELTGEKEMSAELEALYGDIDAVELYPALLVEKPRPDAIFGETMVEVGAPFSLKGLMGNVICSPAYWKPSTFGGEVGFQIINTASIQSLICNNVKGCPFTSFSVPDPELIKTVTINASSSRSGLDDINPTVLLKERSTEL
# Method: Inhibition of COX2 in human fetal fibroblast assessed as inhibition of IL-1beta-mediated PGE2 production after 50 mins by ELISA
Endpoint name: log10(IC50) (log10 of the value in nM)

> print(dat)
                                 cpd.smiles  endpoint.name  reported.measurement
1  O=C(N[C@H]1CCC[C@H]1OCc1ccccc1)C1CCN(c2nc3cc(Cl)ccc3o2)CC1    log10(IC50)                  2.79
2  O=C(N[C@H]1CCC[C@@H]1OCc1ccccc1)C1CCN(c2nc3cc(Cl)ccc3o2)CC1    log10(IC50)                  1.54
3  O=C(N[C@H]1CC[C@@H](CO)CC1)C1CCN(c2nc3cc(Cl)ccc3o2)CC1    log10(IC50)                  3.10
4  O=C(NC1CCCC1)C1CCN(c2nc3cc(Cl)ccc3o2)CC1    log10(IC50)                  3.00
5  O=C(N[C@@H]1CCC[C@H]1OCc1ccccc1)C1CCN(c2nc3cc(Cl)ccc3o2)CC1    log10(IC50)                  2.47
6  O=C(N[C@H]1CCC[C@@H]1COc1ccccc1)C1CCN(c2nc3cc(Cl)ccc3o2)CC1    log10(IC50)                  1.93
